This collection of values is drawn from paper PMC7268320.

# EXPERIMENT: CSF drug concentration in pediatric brain tumor patients, Ommaya reservoir samples, HPLC-QqQ MS
# Assay type: in vivo, human
# TEST_CONTEXT: total drug, steady state, oral dosing, pediatric brain tumor patients
For each of the compounds below, state its CSF concentration, mean.
One number for each entry, in nM.

Answered cases to consult:
CNC(=O)c1cc(Oc2ccc(NC(=O)Nc3ccc(Cl)c(C(F)(F)F)c3)c(F)c2)ccn1 [regorafenib] :: 6.7
O=C(CCCCCCC(=O)Nc1ccccc1)NO [vorinostat] :: 75.4
CN(C)C(=O)c1cc2cnc(Nc3ccc(N4CCNCC4)cn3)nc2n1C1CCCC1 [ribociclib] :: 44.1

**Query** GET /values?readout=CSF concentration, mean&item= Cc1nc(Nc2ncc(C(=O)Nc3c(C)cccc3Cl)s2)cc(N2CCN(CCO)CC2)n1 [dasatinib]
**Result** 1.2
